- Test system: OVCAR-3 ovarian
- experiment-description: NCI tumour cell line growth inhibition, 48 h
measured-property: TGI (µM)
Express your answer in µM, writing the number without its unit.

CS(=O)(=O)Nc1cc(-c2ccc3ncnc(Nc4cccc(Cl)c4)c3c2)cnc1Cl | 2.28

Consider now this further compound.
Give OVCAR-3 ovarian TGI for CCCCCC[C@H]1C(=O)O[C@H](C)[C@H](NC(=O)c2cccc(NC=O)c2OC)C(=O)O[C@@H](C)[C@@H]1OC(=O)CCC (tested in a mixture with another compound) 24.9

====

- Test system: SF-268 CNS
- experiment-description: NCI tumour cell line growth inhibition, 48 h
measured-property: GI50

COc1cc2c3cc1Oc1c(OC)c(OC)cc4c1C(Cc1ccc(O)c(c1)Oc1ccc(cc1)CC3N(C)CC2)N(C)CC4 (centres undefined) | 15.2 µM
CCOC(=O)/C(=C\c1ccc2ccccc2c1)P(=O)(OCC)OCC | 3.28 µM

What value of GI50 has been recorded for this entry: `C#C[C@]1(O)CC[C@H]2[C@@H]3CC=C4c5nc(N)sc5CC[C@]4(C)[C@H]3CC[C@@]21C` 3.57 µM

What about `C=C1C[C@@H]2O[C@H]3[C@H]4[C@@H](CC[C@@](C)(OC(=O)CCC)[C@H]42)[C@@H](C)C(=O)O[C@@]3(C)CC[C@H]1OO` ? 12.8 µM

====

- System: NCI-H460 lung
- experiment-description: NCI tumour cell line growth inhibition, 48 h
measured-property: TGI (µM)
Express your answer in µM, writing the number without its unit.

Some solved cases for reference:
CC(=O)/C(=C\I)c1ccccc1 | 24.7
COc1cc([C@@H]2c3cc4c(cc3[C@@H](NCc3cccc(C#N)c3)C3COC(=O)[C@@H]32)OCO4)cc(OC)c1O (stereo partly drawn) | 2.09
O=C1CSC(c2ccccc2O)N1c1ccc(-n2c(-c3ccccc3)nc3ccccc3c2=O)cc1 (stereo not drawn) | 50.8
CC[C@H]1OC(=O)[C@H](C)[C@@H](O[C@H]2C[C@@](C)(OC)[C@@H](O)[C@H](C)O2)[C@H](C)[C@@H](O[C@@H]2O[C@H](C)C[C@H](N(C)C)[C@H]2O)[C@](C)(OC)C/C(C)=C2/O[C@@]1(C)C=C2C | 3.35
CC(C)[Si]1(C(C)C)OCC2OC(n3ccc(=O)[nH]c3=O)C([Se]c3ccccc3)C2O[Si](C(C)C)(C(C)C)O1 (stereo not drawn) | 3.89

What value of TGI has been recorded for this entry: COc1ccc(C(O)c2cc3c(N)c(C(=O)Nc4cccc(Br)c4C)sc3nc2C)cc1 (stereo not drawn) 1.65

What about `NC(=O)/C(=C/n1cnc(-c2cc(C(F)(F)F)cc(C(F)(F)F)c2)n1)c1cncnc1` ? 5.61

====

- Test system: UACC-62 melanoma
- experiment-description: NCI tumour cell line growth inhibition, 48 h
measured-property: GI50

Some solved cases for reference:
CSC1=Nc2c(c(C)c(-c3ccccc3)n2COC(CO)CO)C2=NC(=O)CC(C)N12 (stereo not drawn) | > 100 µM
Cc1ccc(C2CC(c3ccc(Nc4ccnc5cc(Cl)ccc45)cc3)=NN2C=O)cc1 (stereo not drawn) | 4.13 µM
CCOC(=O)c1c(CN2CCN(C)CC2)nc2ccc(Cl)cc2c1-c1ccccc1 | 2.35 µM
CC(O)[C@H](NC(=O)N[C@@H](CC(N)=O)c1nc(N2CCNCC2)no1)C(=O)O (stereo partly drawn) | > 100 µM
CCOC(=O)c1c(NC(=O)c2ccc(Cl)cc2)sc2c(CN(C)C)c(O)ccc12 | 3.41 µM
CC[C@H]1OC(=O)[C@H](C)[C@@H](O[C@H]2C[C@@](C)(OC)[C@@H](O)[C@H](C)O2)[C@H](C)[C@@H](O[C@@H]2O[C@H](C)C[C@H](N(C)C)[C@H]2O)[C@](C)(OC)C/C(C)=C2/O[C@@]1(C)C=C2C | 1.76 µM

What value of GI50 has been recorded for this entry: `Cn1cnnc1[S-].[Au+].c1ccc([PH+](c2ccccc2)c2ccccc2)cc1` 1.26 µM

What about `Nn1c(-c2ccc(Cl)cc2)nc2c(-c3ccc(Cl)cc3)nc3ccc(Cl)cc3c2c1=O` ? 32.2 µM
